- ASSAYED_SYSTEM: T1, MHC class I molecule B*0702 (biotin (bound to streptavidin-coated plate))
- T1 construct: iTopia monomer stripped of placeholder peptide and b2M, then reconstituted with test peptide and fresh b2M; also called B7; HLA-B7
- TEST_DESCRIPTION: iTopia peptide binding assay
- Experimental: The 9 mers were tested for Peptide Binding, Off Rate and Affinity using iTopia Epitope Discovery System in accordance with the manufacturer's instructions. Briefly, 96 well microtitre plates coated with MHC molecules representing different MHC alleles are used to identify candidate peptides. […] Determinations are performed in duplicate using an ELISA plate reader and included allele specific positive controls. […]
MEASURE_NAME: binding, % of positive control peptide

Worked examples, 10 binders total:
binder="LELNSADLD [5T4 9-mer peptide 168 (LELNSADLD)]" measure_name="binding, % of positive control peptide" assay_result="3 % of positive control"
binder="ACRDHMEGY [5T4 9-mer peptide 196 (ACRDHMEGY)]" measure_name="binding, % of positive control peptide" assay_result="7 % of positive control"
binder="DCHMADMVT [5T4 9-mer peptide 150 (DCHMADMVT)]" measure_name="binding, % of positive control peptide" assay_result="5 % of positive control"
binder="LNSADLDCD [5T4 9-mer peptide 169 (LNSADLDCD)]" measure_name="binding, % of positive control peptide" assay_result="0 % of positive control"
binder="INADPRLTN [5T4 9-mer peptide 203 (INADPRLTN)]" measure_name="binding, % of positive control peptide" assay_result="4 % of positive control"
binder="LHLEDNALK [5T4 9-mer peptide 132 (LHLEDNALK)]" measure_name="binding, % of positive control peptide" assay_result="0 % of positive control"
binder="LGIVLALIG [5T4 9-mer peptide 180 (LGIVLALIG)]" measure_name="binding, % of positive control peptide" assay_result="0 % of positive control"
binder="NNPWVCDCH [5T4 9-mer peptide 147 (NNPWVCDCH)]" measure_name="binding, % of positive control peptide" assay_result="4 % of positive control"
binder="DRLTCAYPE [5T4 9-mer peptide 160 (DRLTCAYPE)]" measure_name="binding, % of positive control peptide" assay_result="3 % of positive control"
binder="NNSLVSLTY [5T4 9-mer peptide 122 (NNSLVSLTY)]" measure_name="binding, % of positive control peptide" assay_result="0 % of positive control"

Data point: LKETEVVQG [5T4 9-mer peptide 155 (LKETEVVQG)] ; binding, % of positive control peptide = 3 % of positive control
